meta.source: ChEMBL document CHEMBL3734716

- System: Klebsiella pneumoniae
- protocol_text: Antibacterial activity against Klebsiella pneumoniae ATCC 13883 after 24 hrs using p-iodonitrotetrazolium violet dye
- Assay type: functional
- measurement_setup: ATCC 13883, 24 h
Assign labels as follows, please: criterion met for MIC below 60 µg/mL; criterion not met for MIC equal to or exceeding 60 µg/mL.

{"columns": ["compound", "qualitative_label"],
 "data": [
  ["C[C@H]1CC=C2[C@@H](CC[C@@H](O)C2(C)C)[C@]1(C)CCC1=CC(=O)OC1", "criterion not met"],
  ["C[C@H]1CC[C@H]2C(C)(C)[C@H](O)CC[C@]2(C)[C@@]12CC[C@](C)(CC(=O)O)O2", "criterion not met"],
  ["C[C@H]1CC[C@H]2C(C)(C)[C@H](O)CC[C@]2(C)[C@@]12CC[C@@](C)(CCO)O2", "criterion not met"],
  ["C/C(=C\\C(=O)O)CC[C@]1(C)[C@@H](C)CC[C@@]2(C)C(CO)=CCC[C@@H]12", "criterion not met"],
  ["CC(=O)O[C@@H]1CC[C@@]2(C)[C@@H](CC[C@H](C)[C@]23CC[C@](C)(CC(=O)O)O3)C1(C)C", "criterion not met"]
]}

INPUT: In the record for `O=C(O)c1cn(C2CC2)c2cc(N3CCNCC3)c(F)cc2c1=O` , is MIC less than 60 µg/mL?
OUTPUT: criterion met

INPUT: In the record for C/C(=C\C(=O)O)CC[C@@]1(C)[C@H](C)CC[C@@]2(C)C(CO)=CCC[C@H]12 (relative stereo) , is MIC less than 60 µg/mL?
OUTPUT: criterion not met

INPUT: In the record for `C/C(=C\C(=O)O)CC[C@]1(C)[C@@H](C)CC[C@]2(C)[C@H]1CC[C@H]1O[C@]12C` , is MIC less than 60 µg/mL?
OUTPUT: criterion not met

INPUT: In the record for `CC1=CCC[C@H]2[C@](C)(CC/C(C)=C/C(=O)O)[C@@H](C)CC[C@@]12C` , is MIC less than 60 µg/mL?
OUTPUT: criterion not met

INPUT: In the record for `C[C@H]1CC[C@H]2C(C)(C)CCC[C@]2(C)[C@@]12CC[C@](C)(CC(=O)O)O2` , is MIC less than 60 µg/mL?
OUTPUT: criterion met

INPUT: In the record for `C[C@H]1CC[C@H]2C(C)(C)CCC[C@]2(C)[C@@]1(O)CCC1=CC(=O)OC1` , is MIC less than 60 µg/mL?
OUTPUT: criterion not met
